Tested on: burned cutaneous area of the back
assay-explanation: Cutaneous regeneration from burns
Type: in vivo
conditions-used: rabbits; oral, 20 mg Kg^-1 once a day for seven days; 8th day from treatment
Where a name gives a salt, the structure may show the parent alone.
experimental-endpoint: Percentage of regenerated tissue, 8th day (%)
One number for each entry, in %.

Below are worked cases with known answers.
compound="C[N+](C)(C)CC(CC(=O)O)OC(=O)CCS (stereo not drawn) [3-mercapto propionyl carnitine Cl, hydrochloride]" reading_unit=% experimental_result=80
compound="C[N+](C)(C)CC(CC(=O)O)OC(=O)CS (stereo not drawn)" reading_unit=% experimental_result=70
compound="C[N+](C)(C)CC(CC(=O)O)OC(=O)CCCCS (stereo not drawn)" reading_unit=% experimental_result=60
compound="CC(S)C(=O)OC(CC(=O)O)C[N+](C)(C)C (stereo not drawn)" reading_unit=% experimental_result=65
compound="C[N+](C)(C)CC(CC(=O)O)OC(=O)CCCS (stereo not drawn) [4-mercapto butyryl carnitine Cl, hydrochloride]" reading_unit=% experimental_result=70

**Q:** Return reported Percentage of regenerated tissue, 8th day. Input compound: CCC(S)C(=O)OC(CC(=O)O)C[N+](C)(C)C (stereo not drawn)
**A:** 95
